- System: 439559-082-T-J2-PDC spheroids viability
- EXPERIMENT: Anticancer human tumor 439559-082-T-J2-PDC patient-derived colon adenocarcinoma cell line growth inhibition [GQUAD]
- RUN PARAMETERS: second compound 0.0316 µM; first compound 0.1 µM; active compounds read low
Doc: threshold 70% (exclusive). Items with viability, T/C beneath it return T; others return F.

(Q) Is viability, T/C strictly under 70% for the entry CC1COCCN1c1cc(-c2ccnn2C)c2ccnc(-c3ccn[nH]3)c2n1 (stereo not given) + Cc1cnc(CNC(=O)c2c(=O)c3ccc(N4CCCN(C)CC4)nc3n3c2sc2ccccc23)cn1 ?
(A) T

(Q) Input Nc1ccn(C2OC(CO)C(O)C2(F)F)c(=O)n1 (stereo not given) + Cc1[nH]c2ccc(F)cc2c1-c1nc2c3cccnc3c3ncccc3c2[nH]1
(A) F

(Q) Input CC1COCCN1c1cc(-c2ccnn2C)c2ccnc(-c3ccn[nH]3)c2n1 (stereo not given) + CN(C)c1ccc(Nc2c3ccc(NC(=O)CCN4CCCC4)cc3nc3cc(NC(=O)CCN4CCCC4)ccc23)cc1
(A) F

(Q) Input COc1ncnc(C2CC2)c1-c1ncc2cnn(Cc3ccc(-c4nc(C(F)(F)F)cn4C(C)C)cc3)c2n1 + CN(C)c1ccc(Nc2c3ccc(NC(=O)CCN4CCCC4)cc3nc3cc(NC(=O)CCN4CCCC4)ccc23)cc1
(A) F

(Q) Input C#Cc1c(F)ccc2cc(O)cc(-c3ncc4c(N5CC6CCC(C5)N6)nc(OCC56CCCN5CC(F)C6)nc4c3F)c12 (stereo not given) + Cc1[nH]c2ccc(F)cc2c1-c1nc2c3cccnc3c3ncccc3c2[nH]1
(A) F

###

Kindly state viability, T/C for each of the entries shown.
- Tested on: 439559-082-T-J2-PDC spheroids viability
- EXPERIMENT: Anticancer human tumor 439559-082-T-J2-PDC cell line growth inhibition [GQUAD];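 further: spheroids exposed to the agents for 7 days before readout; percent of luminescence signal in DMSO vehicle wells taken as 100% viability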
- RUN PARAMETERS: second compound 3.16 µM; first compound 0.316 µM; active compounds read low
// note: answer is a bare numeric in %

(Q) # lookup: viability, T/C of CC[C@@]1(O)C(=O)OCc2c1cc1n(c2=O)Cc2cc3c(CN(C)C)c(O)ccc3nc2-1 + CN(C)c1ccc(Nc2c3ccc(NC(=O)CCN4CCCC4)cc3nc3cc(NC(=O)CCN4CCCC4)ccc23)cc1
(A) 91.9

(Q) Input Nc1ccn(C2OC(CO)C(O)C2(F)F)c(=O)n1 (stereo not given) + Cc1cnc(CNC(=O)c2c(=O)c3ccc(N4CCCN(C)CC4)nc3n3c2sc2ccccc23)cn1
(A) 43.5

(Q) Input CC[C@@]1(O)C(=O)OCc2c1cc1n(c2=O)Cc2cc3c(CN(C)C)c(O)ccc3nc2-1 + Cc1[nH]c2ccc(F)cc2c1-c1nc2c3cccnc3c3ncccc3c2[nH]1
(A) 73.5

(Q) Input CC1COCCN1c1cc(C2(S(C)(=N)=O)CC2)nc(-c2ccnc3[nH]ccc23)n1 (stereo not given) + CN(C)c1ccc(Nc2c3ccc(NC(=O)CCN4CCCC4)cc3nc3cc(NC(=O)CCN4CCCC4)ccc23)cc1
(A) 104

(Q) Input Cn1ncnc1[C@H]1c2n[nH]c(=O)c3cc(F)cc(c23)N[C@@H]1c1ccc(F)cc1 + Cc1cnc(CNC(=O)c2c(=O)c3ccc(N4CCCN(C)CC4)nc3n3c2sc2ccccc23)cn1
(A) 67.8
